The origin of these recorded values is patent US10800725B2.

The reader will find reported IC50 values listed item by item below.
- Tested System: E. coli RNA polymerase σ70 holoenzyme (Escherichia coli (strain K12), UniProt P0A8T7+P0A8V2)
- Test Protocol: Fluorescence-detected RNA polymerase assay, E. coli RNAP
- Experimental: Fluorescence-detected RNA polymerase assays with E. coli RNA polymerase were performed by a modification of the procedure of Kuhlman et al., 2004 [Kuhlman, P., Duff, H. & Galant, A. (2004) A fluorescence-based assay for multisubunit DNA-dependent RNA polymerases. Anal. Biochem. 324, 183-190]. […]
Property Label: IC50 (µM)

> print(dat)
                                chem.smiles  property.label  unit.tag  result
1  CC(C)CCC1=C(O)C(CCC(C)C)(CCC(C)C)C(=O)C(C(=O)CCc2ccc(Br)cc2)=C1O            IC50        µM    0.89
2  CCCCC1=C(O)C(CCCC)(CCCC)C(=O)C(C(=O)CCc2ccccc2)=C1O            IC50        µM      33
3  CCCC1=C(O)C(CCC)(CCC)C(=O)C(C(=O)CCc2ccccc2)=C1O            IC50        µM      70
4  CCCCCC1=C(O)C(CCCCC)(CCCCC)C(=O)C(C(=O)CCc2ccccc2)=C1O            IC50        µM     7.3
